# measured.target: T1, cynomolgus IL-17RA on the cell surface (cynomolgus)
# T1 construct: whole, on cells; also called CHO-cynoIL-17RA; cyno IL-17RA+ CHO cells
# test.method.notes: FACS competition, non-clonal hybridoma supernatant vs biotin-huIL-17A (500 ng/ml) on cyno IL-17RA+ cells; lower = more inhibition
Overview of recorded MFI for various binders
# answer = number (no unit)

Worked set:
Which MFI value is on record for AMH5/AML5 (antibody, IgG2, V domains shown, IgG2 XenoMouse; also called AM-5) VH: QVQLQESGPGLVKPSETLPLTCTVSGGSIRSYYWSWIRQPAGKGLEWIGRIYRSGNTIYNPSLKSRVTMSIDTSKNQFSLTLSSVTAADTAVYYCARENYSESSGLYYYYGMDVWGQGTTVTVSS VL: DIQMTQSPSSLSASVGDRVTITCRASQGIRNDLGWYQQKPGKAPKRLIYAASSFQSGVPSRFSGSGSGTGFTLTISSLQPEDFATYYCLQHNSYPPTFGQGTKVEIK ?
9

Which MFI value is on record for AMH1/AML1 (antibody, V domains shown, also called AM-1) VH: QVQLQESGPGLVKPSETLSLTCTVSGGSISNYYWNWIRQSPGKGLEWIGDIYYSGSTNYNPSLKSRVTISVDTSKNQFSLKLSSVTTADTAVYYCARDGELANYYGSGSYQFYYYYGMDVWGQGTTVTVSS VL: DILMTQSPSSLSASVGDRVTITCRASQGIRNDLGWYQQKPGKAPKRLIYAASSLQSGVPSRFSGSGSGTEFTLTISSLQPEDFATYYCLQHNSNPFTFGPGTKVDIK ?
11

***
Which MFI value is on record for AMH11/AML11 (antibody, IgG2, V domains shown, also called AM-11) VH: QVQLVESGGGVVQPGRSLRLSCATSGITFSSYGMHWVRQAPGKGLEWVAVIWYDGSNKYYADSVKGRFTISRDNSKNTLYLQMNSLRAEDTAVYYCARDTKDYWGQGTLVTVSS VL: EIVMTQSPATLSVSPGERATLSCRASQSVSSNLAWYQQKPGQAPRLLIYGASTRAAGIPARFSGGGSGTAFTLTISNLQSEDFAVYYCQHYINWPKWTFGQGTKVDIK ?
9

Which MFI value is on record for AMH22/AML22 (antibody, IgG2, V domains shown, also called AM-22) VH: QVQLVQSGAEVKKPGASVKVSCKASGYTFTRYGISWVRQAPGQGLEWMGWISAYSGNTNYAQKLQGRVTMTTDTSTSTAYMELRSLRSDDTAVYYCARRQLYFDYWGQGTLVTVSS VL: EIVMTQSPATLSVSPGERVTLSCRASQSVSSNLAWFQQKPGQAPRPLIYDASTRAAGIPARFSGSGSGTDFTLTISSLQSEDFAVYYCQQYDNWPLTFGGGTKVEIK ?
18

Entry source: patent US20110166331A1
